Assignment: determine reported SPOT peptide array binding signal intensity for the given binders.
- MEASURED_ON: CaHse1
- ASSAY_COMMENT: SPOT peptide array binding signal intensity (averaged, normalized) (arbitrary units (background-subtracted, floor 0; scale differs between SH3 domains)); higher = stronger binding of the SH3 domain to the peptide
No unit in the answer, only the number.

Ask: # input binder: ATNVPVAPPPPPASL ; wanted: its SPOT peptide array binding signal intensity
Result: 0.5

Ask: # input binder: LKQRFFLMFPKSIIW ; wanted: its SPOT peptide array binding signal intensity
Result: 121

Ask: # input binder: RMVRRRPLRVQFSAR ; wanted: its SPOT peptide array binding signal intensity
Result: 464

Ask: # input binder: YRRKSIPFAPHQITA ; wanted: its SPOT peptide array binding signal intensity
Result: 16.8

Ask: # input binder: LPPPPPPPPPPPLPQ ; wanted: its SPOT peptide array binding signal intensity
Result: 5.75

Ask: # input binder: MFLISPPASPPPEFD ; wanted: its SPOT peptide array binding signal intensity
Result: 8

Ask: # input binder: QNTPPLPPKPKSPHL ; wanted: its SPOT peptide array binding signal intensity
Result: 1110

Ask: # input binder: RPVPRRPSQPLNTLS ; wanted: its SPOT peptide array binding signal intensity
Result: 56.1

Ask: # input binder: RFKRHRLEFPFNESE ; wanted: its SPOT peptide array binding signal intensity
Result: 16

Ask: # input binder: NRARYLPQNPDIIAG ; wanted: its SPOT peptide array binding signal intensity
Result: 13.8

Ask: # input binder: GTIARPLFLVVLFFI ; wanted: its SPOT peptide array binding signal intensity
Result: 126

Ask: # input binder: VQQDSLPKLPFRSWG ; wanted: its SPOT peptide array binding signal intensity
Result: 9.25
